# credit: PubChem BioAssay (EPA / NIEHS)

# Protocol: BSK_3C_Proliferation: Cell Proliferation Assessment in the BioMAP Diversity Plus: 3C Assay (AID 2283006)
# Stated Conditions: primary human endothelial cells (HUVEC)
The source made the active and inactive calls. Rule for the calls: active = hit-call score of the fitted dose curve at least 0.9, where 1 is the maximum; inactive = score below 0.9.
Reply using exactly one outcome from label 1 = active, label 0 = inactive

Entry `Clc1ccc(Cl)cc1` : call = ?
label 0

Entry `Cc1ccccc1O` : call = ?
label 0

Entry `Cc1cc(-c2ccc(N)c(C)c2)ccc1N` : call = ?
label 0

Entry `CCCCCCCCCc1ccc(O)cc1` : call = ?
label 1

Entry `O=S(=O)(O)C(F)(F)C(F)(F)C(F)(F)C(F)(F)C(F)(F)C(F)(F)F` : call = ?
label 0

Entry `ClC1=C(Cl)[C@]2(Cl)[C@@H]3[C@@H]4C[C@@H]([C@H]5O[C@@H]45)[C@@H]3[C@@]1(Cl)C2(Cl)Cl` : call = ?
label 1

Entry `Oc1ccc(Cl)cc1Cl` : call = ?
label 0

Entry `CCCCCCOC(=O)c1ccccc1C(=O)OCCCCCC` : call = ?
label 1

Entry `O=C(NC(=O)c1cc(F)c(F)cc1Cl)Nc1cc(F)ccc1N1CCC(C(=O)O)CC1` : call = ?
label 0

Entry `Oc1ccc(C(c2ccc(O)cc2)(C(F)(F)F)C(F)(F)F)cc1` : call = ?
label 1

Entry `Cc1cc(O)ccc1Cl` : call = ?
label 0

Entry `c1cc2ccc3cccc4ccc(c1)c2c34` : call = ?
label 0

Entry `O=C(N[C@H]1CN2CCC1CC2)c1cc2ccoc2cn1` : call = ?
label 0

Entry `CCOCCOC(C)=O` : call = ?
label 0

Entry `COS(=O)(=O)OC` : call = ?
label 0

Entry `O=S(=O)(O)C(F)(F)C(F)(F)C(F)(F)C(F)(F)F` : call = ?
label 0

Entry `Cc1cc2c3c(c1)C(c1ccccc1)=N[C@@H](NC(=O)c1ccncc1)C(=O)N3CC2` : call = ?
label 0

Entry `ClC1=C(Cl)[C@]2(Cl)[C@@H]3[C@@H](Cl)[C@H]4O[C@H]4[C@@H]3C1(Cl)C2(Cl)Cl` : call = ?
label 1

Entry `Cc1cccc([N+](=O)[O-])c1` : call = ?
label 0

Entry `O=C(O)C(F)(F)C(F)(F)C(F)(F)C(F)(F)C(F)(F)F` : call = ?
label 0

Entry `COc1ccc(O)c(C(C)(C)C)c1` : call = ?
label 0

Entry `CCC(C)(CC)c1cc(NC(=O)c2c(OC)cccc2OC)on1` : call = ?
label 0

Entry `CN(C)CCO` : call = ?
label 0

Entry CC(C)C(=O)OCC(C)(C)C(OC(=O)C(C)C)C(C)C (configuration not stated) : call = ?
label 1

Entry `C=CC(N)=O` : call = ?
label 0

Entry `CCOC(=O)C(O)(c1ccc(Cl)cc1)c1ccc(Cl)cc1` : call = ?
label 1

Entry `CCC(C)(c1ccc(O)cc1)c1ccc(O)cc1` : call = ?
label 1
